Values were extracted from PubChem BioAssay (EPA / NIEHS).

target-under-test: Estrogen receptor (Homo sapiens) (UniProt P03372)
Sequence (P03372 whole entry, looked up): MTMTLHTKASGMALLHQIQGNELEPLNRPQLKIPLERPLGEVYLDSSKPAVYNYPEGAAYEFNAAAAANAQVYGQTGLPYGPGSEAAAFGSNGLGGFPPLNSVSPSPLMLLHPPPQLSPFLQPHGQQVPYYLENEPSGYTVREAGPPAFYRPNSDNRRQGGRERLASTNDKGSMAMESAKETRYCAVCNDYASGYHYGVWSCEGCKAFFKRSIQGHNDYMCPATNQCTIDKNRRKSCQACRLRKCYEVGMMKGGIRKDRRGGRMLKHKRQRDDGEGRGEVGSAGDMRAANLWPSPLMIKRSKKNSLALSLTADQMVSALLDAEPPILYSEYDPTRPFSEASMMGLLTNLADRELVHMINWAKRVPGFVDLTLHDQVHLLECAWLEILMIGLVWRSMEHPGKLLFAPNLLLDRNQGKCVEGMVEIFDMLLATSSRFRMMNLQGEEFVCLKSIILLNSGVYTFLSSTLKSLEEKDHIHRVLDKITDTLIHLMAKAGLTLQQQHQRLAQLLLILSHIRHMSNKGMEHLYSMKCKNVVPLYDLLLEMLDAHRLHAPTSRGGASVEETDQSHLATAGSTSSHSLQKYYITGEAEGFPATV
measurement-notes: ATG_ERa_TRANS: Attagene TRANS-FACTORIAL HepG2 Assay for human Estrogen Receptor alpha (ERa) (AID 2282970)
condition-parameters: HepG2 Attagene TRANS ERa GAL4 reporter, mRNA
Procedure: ATG_TRANS is a cell-based, multiplexed-readout assay that uses HepG2, a human liver cell line, with measurements taken at 24 hours after chemical dosing in a 24-well plate.ATG_ERa_TRANS is one of 30 assay component(s) measured or calculated from the ATG_TRANS assay. […] This assay endpoint, ATG_ERa_TRANS, was analyzed in the positive analysis fitting direction relative to DMSO as the negative control and baseline of activity. […]
Records with an inconclusive call do not appear. The source made the active and inactive calls. Rule for the calls: active = hit-call score of the fitted dose curve at least 0.9, where 1 is the maximum; inconclusive = response in the unintended direction; inactive = score below 0.9.
Result category, one only: active, inactive

Use the examples below as a reference point.
CCCCCCCCCCCCS : inactive
C=C(C)CCCC(C)CCO (stereo not drawn) : inactive
O=C(OCc1ccccc1)c1ccccc1O : active

What call does the record list for c1ccc(OCCOc2ccccc2)cc1 ?
inactive

Which outcome was entered for the compound CC(=O)OCC=C(C)CCC=C(C)CCC=C(C)C in this test?
active

Test call, this compound: CC(=N[Si](C)(C)C)O[Si](C)(C)C
inactive

Hey, what did the test say about O=C(C=Cc1ccccc1)OCCCc1ccccc1 ?
active

For this compound, state the assay outcome: OC[C@@H](O)[C@H](O)[C@@H](O)[C@@H](O)CO
active

====

Tested on: Thyroperoxidase (TPO), gene 54314
measurement-notes: CCTE_Simmons_AUR_rTPO: CCTE's Amplex UltraRed Assay for Thyroperoxidase (TPO) Inhibition, Simmons Lab (AID 2283662);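 note: potency for loss of signal meaning inhibition of peroxidase activity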
Calls of active or inactive are those of the source. The calls were made as follows: active = hit-call score of the fitted dose curve at least 0.9, where 1 is the maximum; inconclusive = response in the unintended direction; inactive = score below 0.9.
measure-name: AC50

Example entries and their recorded answers appear below.
CC(=O)OC/C=C(C)/C=C/C=C(C)/C=C/C1=C(C)CCCC1(C)C : 50.9 µM (active)
CCC(C)(C)C1CCC(=O)CC1 : 39.3 µM (active)
CCCc1ccc(N)cc1 : 0.0301 µM (active)

Now for the molecule whose AC50 we want.
Requested field: AC50. Item: CN1CCc2cccc3c2[C@H]1Cc1ccc(O)c(O)c1-3
0.522 µM (active)

====

measurement-notes: CCTE_Shafer_MEA_acute_cross_correlation_HWHM: CCTE's Neural Acute Assay for Cross Correlation at Half Width at Half Maximum, Shafer Lab (AID 2284026);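 note: percent change per well from pre-dose baseline in spike cross-correlogram half width; hits are a decrease in cross-correlogram half width relative to DMSO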;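 for outcome: spontaneous network firing of rat primary cortical neurons on multiwell microelectrode arrays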
Calls of active or inactive are those of the source. Rule for the calls: active = hit-call score of the fitted dose curve at least 0.9, where 1 is the maximum; inactive = score below 0.9.
Choose one outcome from this list and give only that: active, inactive

CCn1cc(C(=O)O)c(=O)c2ccc(C)nc21 : inactive
CCCCN(CCO)CCO : inactive
CC(=O)c1ccc(C)cc1 : inactive
c1ccc(OCCOc2ccccc2)cc1 : inactive
CCCO[Si](OCCC)(OCCC)OCCC : active

Record lookup: outcome of this test for O=C(c1ccc(OCCN2CCCCC2)cc1)c1c(-c2ccc(O)cc2)sc2cc(O)ccc12 ?
active

// return assay outcome for CC(C)CCCC(C)(C)O
inactive

Can you look up the reported call for CC(C)(CO)CO for me?
inactive

====

Read-out: urokinase plasminogen activator (uPA), PLAU (gene 5328)
measurement-notes: BSK_BE3C_uPA: BioMAP Diversity Plus: BE3C Assay for urokinase plasminogen activator (uPA) Biomarker Activity (AID 2283038);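 for outcome: uPA protein level quantified by ELISA in cell cultures; uPA read one day after compound addition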
condition-parameters: primary human bronchial epithelial cells; actives raise or lower the signal
Active and inactive are the calls of the source. The calls were made as follows: active = hit-call score of the fitted dose curve at least 0.9, where 1 is the maximum; inactive = score below 0.9.
Reply using exactly one outcome from active, inactive

c1ccc(OCCOc2ccccc2)cc1 : inactive
CCCCCCCCCCCCS : inactive
CCOC(=O)CCCCCCCCC(=O)OCC : inactive
CC(C)(CO)CO : inactive
O=C(c1ccc(OCCN2CCCCC2)cc1)c1c(-c2ccc(O)cc2)sc2cc(O)ccc12 : active
CCn1cc(C(=O)O)c(=O)c2ccc(C)nc21 : inactive

Would you mind telling me which call this test gave OCCN1CCOCC1 ?
inactive

====

target-under-test: Nuclear respiratory factor 1 (Homo sapiens) (UniProt Q16656)
Sequence (Q16656 whole entry, looked up): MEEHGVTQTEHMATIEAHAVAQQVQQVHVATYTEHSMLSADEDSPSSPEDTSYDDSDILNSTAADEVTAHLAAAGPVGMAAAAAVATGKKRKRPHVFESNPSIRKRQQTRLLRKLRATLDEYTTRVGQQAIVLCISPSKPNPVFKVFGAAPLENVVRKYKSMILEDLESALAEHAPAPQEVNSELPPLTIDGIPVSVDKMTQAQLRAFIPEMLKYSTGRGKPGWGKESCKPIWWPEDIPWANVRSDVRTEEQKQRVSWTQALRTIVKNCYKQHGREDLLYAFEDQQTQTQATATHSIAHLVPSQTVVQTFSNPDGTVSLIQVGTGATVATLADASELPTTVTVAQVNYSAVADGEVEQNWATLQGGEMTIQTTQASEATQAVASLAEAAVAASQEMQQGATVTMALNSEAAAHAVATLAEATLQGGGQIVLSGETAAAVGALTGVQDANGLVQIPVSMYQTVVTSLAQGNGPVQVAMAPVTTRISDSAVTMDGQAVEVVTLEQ
measurement-notes: ATG_NRF1_CIS: Attagene CIS-FACTORIAL HepG2 Assay for human Nuclear Respiratory Factor 1 (NRF1) Orphan Gene (AID 2282987)
condition-parameters: HepG2 NRF1 cis-element reporter, Attagene multiplex; actives raise or lower the signal
The source made the active and inactive calls. Rule for the calls: active = hit-call score of the fitted dose curve at least 0.9, where 1 is the maximum; inactive = score below 0.9.
Assign a class; possible classes are 1 for active, 0 for inactive

CCCc1ccc(O)cc1 : 0
O=[N+]([O-])c1cc(N(CCO)CCO)ccc1NCCO : 0
CC(CCO)CC(C)(C)C (stereo unspecified) : 0
CCCC[N+](C)(CCCC)CCCC : 0

I'd appreciate the recorded outcome for O=S1(=O)CC=CC1 from this test.
0

Look up the recorded call for CN(C)CCC=C1c2ccccc2CCc2ccccc21 in this test.
0

Outcome logged for CC1=CCC(C(C)(C)O)CC1 (stereo unspecified) in this assay:
0

Each molecule tested received a call. Report the one for NC(=O)c1cccnc1 .
0

How did this test come out for CC12CCC(C1)C(C)(C)C2O (stereo unspecified) ?
0

====

Read-out: Collagen IV, COL4A1 (gene 1282)
measurement-notes: BSK_MyoF_CollagenIV: BioMAP Diversity Plus: MyoF Assay for Collagen IV Biomarker Activity (AID 2284247)
condition-parameters: primary human lung fibroblasts
The source made the active and inactive calls. Rule for the calls: active = hit-call score of the fitted dose curve at least 0.9, where 1 is the maximum; inactive = score below 0.9.
Respond only with the outcome that fits, drawn from active, inactive

CC=CC(=O)C1=C(C)C=CCC1(C)C : inactive
C=CC(=O)OCC(CO)(COC(=O)C=C)COC(=O)C=C : inactive
CCC(=O)OCC=Cc1ccccc1 : inactive

Hello, I am checking results. What call was entered for CC(C)Cc1ccc(C(C)C(=O)O)cc1 (stereo not given) ?
inactive

What was the test verdict on CC1=CC(C)C(C=O)C(C)C1 (stereo not given) (tested in a mixture with another compound) ?
inactive

Identify the outcome logged in this assay for the compound shown: CC(=O)OCC=C(C)CCC=C(C)CCC=C(C)C
inactive

// return assay outcome for CC(=O)OC(C)(C)C1CC=C(C)CC1 (stereo not given)
inactive

Called result for O=C(O)C(F)(F)C(F)(F)C(F)(F)C(F)(F)C(F)(F)C(F)(F)C(F)(F)C(F)F
inactive

Assay result, entry C=C(C)C(=O)OCCC(F)(F)C(F)(F)C(F)(F)C(F)(F)C(F)(F)C(F)(F)C(F)(F)C(F)(F)F — outcome?
inactive

Tell me the assay call for CCCCCCCCCCCCS please.
inactive

Dear colleague, could you share the recorded outcome for CC1(C)[C@H](C=C(Cl)Cl)[C@H]1C(=O)OCc1cccc(Oc2ccccc2)c1 when you have a moment?
inactive

// return assay outcome for C=C(F)C(=O)OC(C(F)(F)F)C(F)(F)F
inactive

Write down the call the test reported for this compound. Item: c1ccc2c(c1)-c1ccc3ccc4cccc5cc-2c1c3c45
active

Recorded call for CC(=O)CCC=C(C)CCC=C(C)C ?
inactive

What classification did O=S(=O)(O)C(F)(F)C(F)(F)OC(F)(F)C(F)(F)F end up with in this test?
inactive

====

measurement-notes: BSK_hDFCGF_SRB: Viability Assessment in the BioMAP Diversity Plus: hDFCGF Assay (AID 2283061);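 note: cells exposed to compound for 24 h before the read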
condition-parameters: primary human foreskin fibroblasts
Active and inactive are the calls of the source. Rule for the calls: active = hit-call score of the fitted dose curve at least 0.9, where 1 is the maximum; inactive = score below 0.9.
Classes to choose from: active, inactive

Check out these entries, answers already filled in.
O=C(c1ccc(OCCN2CCCCC2)cc1)c1c(-c2ccc(O)cc2)sc2cc(O)ccc12 : active
CCOC(=O)C=Cc1ccccc1 : inactive
CC(=O)c1ccc(C)cc1 : inactive
CCCCCCCC1CCCC1=O (stereo not drawn) : inactive

Dear colleague, could you share the recorded outcome for CCC(=O)OCC=Cc1ccccc1 when you have a moment?
inactive

What is the recorded call for this compound in the test? C=C(C)C(=O)OCCC(F)(F)C(F)(F)C(F)(F)C(F)(F)C(F)(F)C(F)(F)C(F)(F)C(F)(F)F
inactive

Could you kindly confirm the outcome this assay logged for CC=CC(=O)C1=C(C)C=CCC1(C)C ?
inactive

Can you look up the reported call for C=C1CC/C=C(\C)CC[C@@H]2[C@@H]1CC2(C)C for me?
active

Outcome logged for O=S1(=O)CC(Cl)(Cl)C(Cl)(Cl)C1 in this assay:
active

What call does the record list for CC(=O)CCC=C(C)CCC=C(C)C ?
inactive

Returns: the outcome recorded for CC(C)Cc1ccc(C(C)C(=O)O)cc1 (stereo not drawn) in this assay.
inactive

Hello, I am checking results. What call was entered for CC1(C)[C@H](C=C(Cl)Cl)[C@H]1C(=O)OCc1cccc(Oc2ccccc2)c1 ?
inactive

Which outcome did this test record for the compound CC(C)CCCC(C)(C)O ?
inactive

====

Read-out: Tumor necrosis factor (Homo sapiens) (UniProt P01375)
Sequence (P01375 whole entry, looked up): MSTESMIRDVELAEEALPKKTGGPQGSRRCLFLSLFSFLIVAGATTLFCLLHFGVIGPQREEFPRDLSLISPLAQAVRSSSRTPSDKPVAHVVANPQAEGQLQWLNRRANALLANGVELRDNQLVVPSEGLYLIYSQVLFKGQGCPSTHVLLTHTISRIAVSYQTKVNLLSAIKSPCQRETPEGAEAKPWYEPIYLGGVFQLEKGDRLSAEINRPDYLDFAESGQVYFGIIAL
measurement-notes: BSK_BT_xTNFa: BioMAP Diversity Plus: BT Assay for Tumor necrosis factor alpha (TNF-alpha) Biomarker Activity (AID 2284230)
condition-parameters: primary human B cells with PBMC
Active and inactive are the calls of the source. How the source made its calls: active means hit-call score of the fitted dose curve at least 0.9, where 1 is the maximum; inactive means score below 0.9.
Please answer using one outcome listed in yes (1) = active, no (0) = inactive

Past entries and their recorded results:
c1ccc(Sc2ccccc2)cc1 : no (0)
CC(C)Cc1ccc(C(C)C(=O)O)cc1 (centres undefined) : no (0)
C=CC(=O)OCC(CO)(COC(=O)C=C)COC(=O)C=C : yes (1)

Field: outcome | Entry: NC(=O)c1c(Cl)cccc1Cl
no (0)

Test call for this compound, please: OCCN1CCOCC1
no (0)

Returns: the outcome recorded for CCOC(=O)CCCCCCCCC(=O)OCC in this assay.
no (0)

# outcome recorded in this test, key = CC(=O)OCC=C(C)CCC=C(C)CCC=C(C)C
yes (1)

Given CCC(=O)OCC=Cc1ccccc1 , state the outcome it received in this test.
no (0)

Give the logged outcome of this assay for the following compound: O=C1OC2(c3ccc(O)cc3Oc3cc(O)ccc32)c2ccccc21
no (0)

I would be grateful if you could indicate the recorded call for CC1(C)[C@H](C=C(Cl)Cl)[C@H]1C(=O)OCc1cccc(Oc2ccccc2)c1 .
no (0)

Test call for this compound, please: C=C(C)C(=O)OCCC(F)(F)C(F)(F)C(F)(F)C(F)(F)C(F)(F)C(F)(F)C(F)(F)C(F)(F)F
no (0)

I'd appreciate the recorded outcome for c1ccc2c(c1)-c1ccc3ccc4cccc5cc-2c1c3c45 from this test.
no (0)

Hi team, can someone confirm the assay call for CC(=O)CCC=C(C)CCC=C(C)C ?
no (0)

Just curious, what result did O=C(O)C(F)(F)C(F)(F)C(F)(F)C(F)(F)C(F)(F)C(F)(F)C(F)(F)C(F)F get here?
no (0)
